# Study system: T1, interferon-alpha receptor (type I interferon receptor comprising receptor subunits IFNAR-2 and IFNAR-1) (human, UniProt P17181 28-557; P48551 27-515)
# T1 sequence (looked up) 1: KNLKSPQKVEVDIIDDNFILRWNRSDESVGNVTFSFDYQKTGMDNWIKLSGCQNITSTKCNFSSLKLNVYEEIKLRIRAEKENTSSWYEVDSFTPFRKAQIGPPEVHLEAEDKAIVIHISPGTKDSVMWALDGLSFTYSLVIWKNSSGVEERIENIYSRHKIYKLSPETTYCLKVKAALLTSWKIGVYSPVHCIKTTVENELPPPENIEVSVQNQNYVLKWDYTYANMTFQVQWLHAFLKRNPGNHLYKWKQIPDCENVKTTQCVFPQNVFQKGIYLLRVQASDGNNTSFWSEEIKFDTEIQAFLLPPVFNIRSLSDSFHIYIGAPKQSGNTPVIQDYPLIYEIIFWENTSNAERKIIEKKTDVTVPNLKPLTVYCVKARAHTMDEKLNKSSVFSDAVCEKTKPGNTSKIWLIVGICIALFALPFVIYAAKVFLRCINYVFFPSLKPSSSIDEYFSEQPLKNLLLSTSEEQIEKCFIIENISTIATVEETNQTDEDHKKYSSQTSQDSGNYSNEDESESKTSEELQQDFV
# T1 sequence (looked up) 2: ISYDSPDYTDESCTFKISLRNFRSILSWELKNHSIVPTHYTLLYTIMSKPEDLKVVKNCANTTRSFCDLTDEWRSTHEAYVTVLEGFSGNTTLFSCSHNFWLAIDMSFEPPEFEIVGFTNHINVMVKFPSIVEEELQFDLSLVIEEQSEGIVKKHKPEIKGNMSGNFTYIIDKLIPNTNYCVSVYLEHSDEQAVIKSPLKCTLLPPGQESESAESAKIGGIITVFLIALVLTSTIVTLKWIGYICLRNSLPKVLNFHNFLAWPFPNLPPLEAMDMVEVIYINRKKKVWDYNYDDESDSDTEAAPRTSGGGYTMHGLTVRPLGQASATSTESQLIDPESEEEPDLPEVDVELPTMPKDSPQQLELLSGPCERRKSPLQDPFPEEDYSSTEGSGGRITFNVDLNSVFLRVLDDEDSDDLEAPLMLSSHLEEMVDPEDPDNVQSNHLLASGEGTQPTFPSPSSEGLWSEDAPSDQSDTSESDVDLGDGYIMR
# Assay details: cell-based or functional assay
Exercise: for every item that follows, state its recorded HuH7/EMCV Antiviral activity relative to huIFN-alpha 2b.

binder="14epi17 (ligand) CDLPQTHSLGHRRTMMLLAQMRRISLFSCLKDRHDFRFPQEEFDGNHLQKVQAISLFYEMMQQTFNLFSTKDSSAAWDETLLEKFYIELFQQMNDLEACVMQEVGVEETPLMNVDSILAVRKYFQRITLYLTEKKYSPCAWEVVRAEIMRSFSFSTNLQESLRSKE" reported_measurement="> 8 fold"

--- query ---
// returns reported HuH7/EMCV Antiviral activity relative to huIFN-alpha 2b for input 14epi21 (ligand) CDLPQTHSLGHRRTMMLLAQMRRISLFSCLKDRHDFRFPQEEFDGNHFQKVQAIALFYEMMQQTFNLFSTKDSSAAWDETLLEKFYIELFQQMNDLEACVMQEVGVEETPLMNVDSILAVRKYFQRITLYLTEKKYSPCAWEVVRAEIMRSFSFSTNLQESLRSKE
> 8 fold
